molecular target: PfCDPK1 (Plasmodium falciparum, UniProt P62344); experiment: Radiometric assay, incorporation of 33P into MTIP; conditions: Kinase-Glo Plus IC50 / radiometric IC50
Sequence (P62344 whole entry): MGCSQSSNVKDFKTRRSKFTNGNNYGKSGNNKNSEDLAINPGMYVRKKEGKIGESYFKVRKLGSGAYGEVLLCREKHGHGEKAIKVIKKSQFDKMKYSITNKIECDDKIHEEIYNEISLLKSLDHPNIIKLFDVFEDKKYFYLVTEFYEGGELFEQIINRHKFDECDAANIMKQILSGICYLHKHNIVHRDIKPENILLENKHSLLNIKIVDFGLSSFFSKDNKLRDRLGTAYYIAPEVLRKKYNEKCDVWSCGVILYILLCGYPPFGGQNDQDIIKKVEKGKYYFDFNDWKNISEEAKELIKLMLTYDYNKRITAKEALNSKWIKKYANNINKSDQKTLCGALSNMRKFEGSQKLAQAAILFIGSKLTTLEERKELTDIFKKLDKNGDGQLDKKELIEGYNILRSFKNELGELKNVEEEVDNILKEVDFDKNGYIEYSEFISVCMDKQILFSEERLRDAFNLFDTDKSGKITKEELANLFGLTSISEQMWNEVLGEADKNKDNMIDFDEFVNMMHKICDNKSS
Label t when IC50 ratio (ATP depletion/radiometric assay) < 3; otherwise f.

Solved entries:
>>> df
                                     smiles                              study_system  category
0  NC(=O)c1ccc(-c2cnn3ccc(NCCc4cccnc4)nc23)cc1  PfCDPK1 (Plasmodium falciparum, UniProt P62344)         t
1  O=C(NCc1ccccc1)c1ccc(-c2cnc3ccc(NCCc4cccnc4)nn23)cc1  PfCDPK1 (Plasmodium falciparum, UniProt P62344)         f
2  CC(=O)Nc1cccc(-c2cnn3ccc(NCCc4cccnc4)nc23)c1  PfCDPK1 (Plasmodium falciparum, UniProt P62344)         f
3  c1cncc(CCNc2ccc3ncc(-c4ccc5c(c4)OCO5)n3n2)c1  PfCDPK1 (Plasmodium falciparum, UniProt P62344)         f

Query :: Hi there! Is IC50 ratio (ATP depletion/radiometric assay) for CC(=O)Nc1cccc(-c2cnc3ccc(NCCc4ccccn4)nn23)c1 below 3, do you know?
Result :: t

Query :: Hi there! Is IC50 ratio (ATP depletion/radiometric assay) for COc1ccc2ncc(-c3ccc(C(=O)NCc4ccccc4)cc3)n2n1 below 3, do you know?
Result :: f

###

Task for the reader: assign each of the following compounds its reported pIC50.
molecular target: UniProt:P62344; experiment: Kinase-Glo Plus ATP depletion assay; settings: read-out: IC50 ATP depletion, ATP and MTIP at their respective Km values
Give bare numbers, as −log10 of the molar value.

Known pIC50 results, listed for orientation:
>>> df
                                   compound    study_system  result
0  O=C(NCc1ccccc1)c1ccc(-c2cnc3ccc(NCCc4cccnc4)nn23)cc1 [Compound 47]  UniProt:P62344    7.57
1  c1cncc(CCNc2ccc3ncc(-c4ccc5c(c4)OCO5)n3n2)c1 [Compound 50]  UniProt:P62344    7.39
2  COc1ccc2ncc(-c3ccc(C(=O)NCc4ccccc4)cc3)n2n1 [Compound 12]  UniProt:P62344    6.70
3  CC(=O)Nc1cccc(-c2cnn3ccc(NCCc4cccnc4)nc23)c1 [Compound 14]  UniProt:P62344    7.28

Give pIC50 for each listed item.
1. NC(=O)c1ccc(-c2cnn3ccc(NCCc4cccnc4)nc23)cc1 [Compound 15]
2. CC(=O)Nc1cccc(-c2cnc3ccc(NCCc4ccccn4)nn23)c1 [Compound 10]
3. CC(=O)Nc1cccc(-c2cnc3ccc(NCCc4cccnc4)nn23)c1 [Compound 11]

Result ::
[7.49, 7.19, 7.19]

###

Task for the reader: assign each of the following compounds its reported pIC50.
molecular target: PbCDPK1 (Plasmodium berghei, UniProt A0A509AHB6); assay: Rh-ParM ADP sensor IC50 assay, PbCDPK1; conditions: read-out: IC50 PbCDPK1; Rh-ParM, absence of MTIP, ATP at Km; mean (SD), n = 2
Sequence (A0A509AHB6 whole entry): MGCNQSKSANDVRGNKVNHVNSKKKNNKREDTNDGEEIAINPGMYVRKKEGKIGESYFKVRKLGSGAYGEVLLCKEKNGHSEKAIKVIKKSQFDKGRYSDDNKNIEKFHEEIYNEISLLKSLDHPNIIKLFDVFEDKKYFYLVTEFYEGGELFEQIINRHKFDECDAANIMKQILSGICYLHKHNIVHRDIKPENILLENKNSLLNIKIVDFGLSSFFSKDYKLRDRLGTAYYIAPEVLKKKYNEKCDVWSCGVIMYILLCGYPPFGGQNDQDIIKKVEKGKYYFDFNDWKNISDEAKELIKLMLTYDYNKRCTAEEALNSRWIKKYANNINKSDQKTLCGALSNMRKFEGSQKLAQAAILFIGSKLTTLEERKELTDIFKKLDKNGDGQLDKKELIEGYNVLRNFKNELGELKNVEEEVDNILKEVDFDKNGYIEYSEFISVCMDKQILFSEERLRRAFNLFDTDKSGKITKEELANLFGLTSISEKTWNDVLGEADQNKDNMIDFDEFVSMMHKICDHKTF
Answers are plain numbers, as −log10 of the molar value.

Give pIC50 for each listed item.
1. CN(C)C1CCN(c2ccc3ncc(-c4cnc(Nc5ncccc5F)nc4)n3n2)C1 (stereo not drawn) [Compound 45]
2. CN1CCC(Nc2ccn3ncc(-c4cccc(NC(=O)c5ccccc5)c4)c3n2)CC1 [Compound 28]
3. CC(C)CCNc1ccc(-c2cnn3ccc(NC4CCN(C)C4)nc23)cn1 (stereo not drawn) [Compound 41]
4. CC(C)CNc1ncc(-c2cnc3ccc(NC4CCC(N)CC4)nn23)cn1 (stereo not drawn) [Compound 29]
5. CC(C)CCNc1ncc(-c2cnn3ccc(NC4CCN(C)C4)nc23)cn1 (stereo not drawn) [Compound 42]

Result ::
1. 7.24
2. 6.82
3. 6.69
4. 6.41
5. 6.46

Give pIC50 for each listed item.
1. CC(C)CCNc1cc(-c2cnc3ccc(NC4CCN(C)CC4)nn23)ccn1 [Compound 27]
2. c1nc(NCC2CC2)ncc1-c1cnc2ccc(NC3CCNCC3)nn12 [Compound 40]
3. Fc1cccnc1Nc1ncc(-c2cnc3ccc(NC4CCC(N5CCNCC5)CC4)nn23)cn1 (stereo not drawn) [Compound 46]
4. c1ccc(-n2cc(-c3cnc4ccc(NC5CCNCC5)nn34)cn2)cc1 [Compound 44]

Result ::
[6.32, 6.60, 7.42, 6.33]

###

Task for the reader: assign each of the following compounds its reported IC50 ratio PbCDPK1/PfCDPK1.
target: PbCDPK1 (Plasmodium berghei, UniProt A0A509AHB6); assay: Rh-ParM ADP sensor IC50 assay, PbCDPK1

Known IC50 ratio PbCDPK1/PfCDPK1 results, listed for orientation:
>>> print(df.to_string())
                                   compound  result
0  CC(C)CCNc1ncc(-c2cnn3ccc(NC4CCN(C)C4)nc23)cn1 (centres unmarked)     3.2
1  c1nc(NCC2CC2)ncc1-c1cnc2ccc(NC3CCNCC3)nn12     4.8
2  CC(C)CCNc1ccc(-c2cnn3ccc(NC4CCN(C)C4)nc23)cn1 (centres unmarked)     2.8

Give IC50 ratio PbCDPK1/PfCDPK1 for each listed item.
1. Fc1cccnc1Nc1ncc(-c2cnc3ccc(NC4CCC(N5CCNCC5)CC4)nn23)cn1 (centres unmarked)
2. CC(C)CNc1ncc(-c2cnc3ccc(NC4CCC(N)CC4)nn23)cn1 (centres unmarked)

Result ::
[2.8, 4.6]

###

Task for the reader: assign each of the following molecules its reported IC50.
target: UniProt:P62344; conditions: read-out: IC50 With 1 mM ATP; 1 mM ATP; Rh-ParM ADP detection, absence of MTIP; mean (SD), n = 2
Numbers only, in µM.

Known IC50 results, listed for orientation:
                                     smiles  result_type  result
0  CN(C(=O)c1cc(COc2ccc(-n3cncn3)cc2)on1)C1CCCCC1         IC50    24.2
1  N#Cc1cccc(-c2cnn3ccc(NCCc4cccnc4)nc23)c1         IC50    3.58
2  NC(=O)c1ccc(-c2cnn3ccc(NCCc4cccnc4)nc23)cc1         IC50    0.27
3  CC(=O)Nc1cccc(-c2cnc3ccc(NCCc4ccccn4)nn23)c1         IC50     1.7
4  CC(=O)Nc1cccc(-c2cnn3ccc(NCCc4cccnc4)nc23)c1         IC50   0.745

Give IC50 for each listed item.
1. CN(C(=O)c1cc(COc2ccc(-n3ccnc3)cc2)on1)C1CCCCC1
2. Cc1c(C(=O)N(C)C2CCCCC2)noc1COc1ccc(-n2cncn2)cc1

Result ::
1: 31.7; 2: 5.93

Give IC50 for each listed item.
1. CC(=O)Nc1cccc(-c2cnc3ccc(NCCc4cccnc4)nn23)c1
2. O=C(NCc1ccc(N2CCCC2)cc1)c1ccc(-n2cnc3cccnc32)cc1
3. O=C(NCc1cccc(N2CCCC2)c1)c1ccc(-n2cnc3cccnc32)cc1

Result ::
1. 1.38
2. 2.97
3. 1.38

Give IC50 for each listed item.
1. CC(C)Oc1ccc(CNC(=O)c2ccc(-n3cnc4cccnc43)cc2)cc1
2. COc1ccc2ncc(-c3ccc(C(=O)NCc4ccccc4)cc3)n2n1

Result ::
1: 4.53; 2: 3.91

###

target: PvCDPK1 (Plasmodium vivax); assay: Rh-ParM ADP sensor IC50 assay, PvCDPK1
Sequence (A5KBU9 entry or part of it): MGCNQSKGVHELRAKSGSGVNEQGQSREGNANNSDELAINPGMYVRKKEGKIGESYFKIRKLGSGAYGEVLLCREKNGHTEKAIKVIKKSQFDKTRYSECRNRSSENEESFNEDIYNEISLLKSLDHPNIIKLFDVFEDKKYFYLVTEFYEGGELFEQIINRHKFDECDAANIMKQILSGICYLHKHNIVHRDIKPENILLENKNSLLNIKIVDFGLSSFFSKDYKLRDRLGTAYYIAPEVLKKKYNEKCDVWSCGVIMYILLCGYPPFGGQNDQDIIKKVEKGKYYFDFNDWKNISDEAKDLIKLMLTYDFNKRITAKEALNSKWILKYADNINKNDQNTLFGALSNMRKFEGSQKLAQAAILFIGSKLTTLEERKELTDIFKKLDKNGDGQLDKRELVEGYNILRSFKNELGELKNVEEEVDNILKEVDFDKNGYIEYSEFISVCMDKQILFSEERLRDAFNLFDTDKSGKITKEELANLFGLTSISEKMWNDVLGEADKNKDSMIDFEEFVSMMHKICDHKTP
Task for the reader: assign each of the following compounds its reported IC50 ratio PvCDPK1/PfCDPK1.
Give bare numbers.

Known IC50 ratio PvCDPK1/PfCDPK1 results, listed for orientation:
                                   compound  result
0  CC(C)CCNc1ncc(-c2cnn3ccc(NC4CCN(C)C4)nc23)cn1 (stereo not shown) [Compound 42]     0.9
1  CC(C)CNc1ncc(-c2cnc3ccc(NC4CCC(N)CC4)nn23)cn1 (stereo not shown) [Compound 29]     0.9
2  c1nc(NCC2CC2)ncc1-c1cnc2ccc(NC3CCNCC3)nn12 [Compound 40]     0.9

Query :: Look up IC50 ratio PvCDPK1/PfCDPK1 of CC(C)CCNc1ccc(-c2cnn3ccc(NC4CCN(C)C4)nc23)cn1 (stereo not shown) [Compound 41] and report it.
Result :: 0.9

###

molecular target: PfCDPK1 (Plasmodium falciparum); settings: read-out: IC50 With 1 mM ATP; 1 mM ATP; Rh-ParM ADP detection, absence of MTIP; mean (SD), n = 2
result type: IC50

>>> print(df.to_string())
                                   molecule    result
0  COc1ccc(-n2ccnc(SCC(=O)Nc3ccc(C)cc3C)c2=O)cc1 [Compound 24]  > 100 µM

Give IC50 for each listed item.
1. COc1ccc(NC(=O)CSc2nccn(-c3ccc(OC)cc3)c2=O)cc1 [Compound 23]
2. CCc1ccccc1NC(=O)CSc1nccn(-c2ccc(OC)cc2)c1=O [Compound 22]

Result ::
1. > 100 µM
2. > 100 µM

Reference source: paper PMC4187893
